The reader will find reported TGI values listed item by item below.
# Tested on: TK-10 renal
# assay: NCI tumour cell line growth inhibition, 48 h
Give a bare numeral; the unit µM is implied.

- C=CCNCCN1C(=O)c2ccc3c4c(ccc(c24)C1=O)C(=O)N(CCNCC=C)C3=O: 3.43

Q: Would you kindly share the measured TGI for N=C1N(/N=C/c2ccccn2)C(=Nc2ccccc2)C(=S)N1c1ccccc1 ?
A: 22.9

Q: Would you kindly share the measured TGI for Oc1c(I)cc(I)cc1CNCCN(Cc1ccccn1)Cc1ccccn1 ?
A: 2.54

Q: Would you kindly share the measured TGI for COc1ccc(-c2nc(N)n(C)c2SSc2c(-c3ccc(OC)cc3)nc(N)n2C)cc1 ?
A: 27.6
